subject.of.test: recombinant human SIRT3 (Homo sapiens, UniProt Q9NTG7)
Sequence (Q9NTG7 1-399): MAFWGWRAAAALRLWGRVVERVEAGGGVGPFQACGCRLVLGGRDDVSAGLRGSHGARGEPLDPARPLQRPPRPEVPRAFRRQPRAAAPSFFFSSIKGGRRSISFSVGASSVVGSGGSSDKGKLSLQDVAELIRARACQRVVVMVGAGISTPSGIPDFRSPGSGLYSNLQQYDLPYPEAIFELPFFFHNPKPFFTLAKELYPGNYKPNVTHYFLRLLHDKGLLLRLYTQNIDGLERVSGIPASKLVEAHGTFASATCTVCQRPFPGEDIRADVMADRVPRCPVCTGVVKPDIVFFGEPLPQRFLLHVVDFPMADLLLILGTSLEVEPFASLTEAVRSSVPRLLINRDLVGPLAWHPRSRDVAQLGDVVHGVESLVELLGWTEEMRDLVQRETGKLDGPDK
test.summary: Fluorometric deacetylation assay, IC50 of NAM and isoNAM for SIRT3
applied.conditions: 90 minutes incubation, 1 mM NAD^+ at 37°C (Methods b105: 100 µM NAD^+)
result.type: IC50 (mM)
Supply the numeric figure in mM, leaving out any unit text.

Input: What does the data say about its IC50? Entry: NC(=O)c1ccncc1 [isoNAM, isonicotinamide]
Output: 13.8

----------
subject.of.test: recombinant human SIRT3 (Homo sapiens, UniProt Q9NTG7)
test.summary: SIRT3 initial-rate inhibition kinetics against NAD+, global nonlinear fitting (Eq. 1 / Eq. 2)
applied.conditions: Ki, from fitting of Eq. 2, as restated in the Discussion
pKi: −log10 of the molar value.
result.type: pKi

Input: Which pKi value belongs to NC(=O)c1ccncc1 [isoNAM, isonicotinamide] ?
Output: ~2.34

----------
subject.of.test: recombinant human SIRT1 (Homo sapiens, UniProt Q96EB6)
Sequence (Q96EB6 1-747): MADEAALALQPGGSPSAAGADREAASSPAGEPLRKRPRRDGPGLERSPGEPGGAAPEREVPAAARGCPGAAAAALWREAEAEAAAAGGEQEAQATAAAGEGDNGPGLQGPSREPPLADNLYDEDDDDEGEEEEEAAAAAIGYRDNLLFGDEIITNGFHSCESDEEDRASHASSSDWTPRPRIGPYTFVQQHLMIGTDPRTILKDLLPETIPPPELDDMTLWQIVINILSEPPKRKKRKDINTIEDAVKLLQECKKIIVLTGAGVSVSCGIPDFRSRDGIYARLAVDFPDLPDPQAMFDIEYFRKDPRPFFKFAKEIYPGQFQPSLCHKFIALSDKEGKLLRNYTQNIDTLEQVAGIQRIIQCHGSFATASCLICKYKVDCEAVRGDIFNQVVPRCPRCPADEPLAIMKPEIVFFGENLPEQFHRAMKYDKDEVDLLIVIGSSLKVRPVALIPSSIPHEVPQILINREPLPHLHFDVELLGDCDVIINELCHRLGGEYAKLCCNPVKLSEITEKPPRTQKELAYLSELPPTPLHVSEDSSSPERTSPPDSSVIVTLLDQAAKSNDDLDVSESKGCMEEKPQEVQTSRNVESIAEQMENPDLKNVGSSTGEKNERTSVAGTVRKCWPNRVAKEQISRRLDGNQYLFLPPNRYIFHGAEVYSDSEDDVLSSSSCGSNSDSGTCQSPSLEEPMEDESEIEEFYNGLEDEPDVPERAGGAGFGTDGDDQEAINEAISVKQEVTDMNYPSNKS
test.summary: Fluorometric deacetylation assay, IC50 of NAM and isoNAM for SIRT1
result.type: pIC50
pIC50 here: minus log base 10 of the concentration, concentration in moles per litre.

Input: Entry NC(=O)c1ccncc1 [isoNAM, isonicotinamide] has what pIC50?
Output: 1.91
